Ref: ChEMBL document CHEMBL5058577

system: U2OS; experiment: Multiplex assay against U2OS; assay type: toxicity, cell-based; details: human, 48 h, 1 µM, compound concentration 1 uM, replicate 2
Output Criterion met for records whose Population Pyknosed Nuclei (%) is lower than 9%, Criterion not met for records at or above 9%.

Solved entries:
Cc1noc(-c2ccc(-c3ccc(CC(=O)O)cc3)cc2)c1NC(=O)O[C@H](C)c1ccccc1Cl
Criterion met
Cc1c(CC(=O)O)c2cccnc2n1Cc1ccc(S(C)(=O)=O)cc1C(F)(F)F
Criterion not met

// next entry
Exam item: Answer whether the compound `Cc1cccc(NC(=O)CN2CCC(c3ccccn3)CC2)c1.Cl.Cl` has Population Pyknosed Nuclei (%) strictly less than 9%
Marked response: Criterion not met
